Test system: NCI-H358 (K-Ras G12C)
ASSAY SUMMARY: CellTiter-Glo cell viability assay, H358
Type: cell-based
MEASUREMENT CONTEXT: Homo sapiens, NCI-H358, 120 h, read-out: H358 Cell Viability IC50, NCI-H358, K-Ras G12C, 5-day treatment
RECORDED ENDPOINT: IC50

Form: item CCn1c(-c2cccnc2COC)c2c3cc(ccc31)-c1cc(O)cc(c1)C[C@H](NC(=O)[C@H](C(C)C)N(C)C(=O)CCNC(=O)NCCCl)C(=O)N1CCC[C@H](N1)C(=O)OCC(C)(C)C2 ; test system NCI-H358 (K-Ras G12C); IC50: > 10000 nM

Form: item CCn1c(-c2cnccc2COC)c2c3cc(ccc31)-c1cc(O)cc(c1)C[C@H](NC(=O)[C@H](C(C)C)N(C)C(=O)CN(C)C(=O)[C@@H]1N[C@H]1c1ccccc1)C(=O)N1CCC[C@H](N1)C(=O)OCC(C)(C)C2 ; test system NCI-H358 (K-Ras G12C); IC50: 100 to 1000 nM

Form: item CCn1c(-c2cccnc2[C@H](C)OC)c2c3cc(ccc31)-c1cc(O)cc(c1)C[C@H](NC(=O)[C@H](C(C)C)N(C)C(=O)CN(C)C(=O)[C@@H]1N[C@H]1C1COC1)C(=O)N1CCC[C@H](N1)C(=O)OCC(C)(C)C2 ; test system NCI-H358 (K-Ras G12C); IC50: 10 to 100 nM

Form: item CCn1c(-c2cccnc2[C@H](C)OC)c2c3cc(ccc31)-c1cc(O)cc(c1)C[C@H](NC(=O)[C@H](C(C)C)N(C)C(=O)CN(C)C(=O)[C@H]1CN1CC1COC1)C(=O)N1CCC[C@H](N1)C(=O)OCC(C)(C)C2 (some centres unmarked) ; test system NCI-H358 (K-Ras G12C); IC50: 10 to 100 nM

Form: item CCn1c(-c2cccnc2[C@H](C)OC)c2c3cc(ccc31)-c1cc(O)cc(c1)C[C@H](NC(=O)[C@H](C(C)C)N(C)C(=O)CN(C)C(=O)[C@@H]1CN1CC1(C)COC1)C(=O)N1CCC[C@H](N1)C(=O)OCC(C)(C)C2 (some centres unmarked) ; test system NCI-H358 (K-Ras G12C); IC50: < 10 nM

----------
TARGET UNDER TEST: KRAS G13C (Homo sapiens, UniProt P01116+P62937, G13C)
Sequence (P01116 1-169 isoform P01116-2 G13C limits assumed): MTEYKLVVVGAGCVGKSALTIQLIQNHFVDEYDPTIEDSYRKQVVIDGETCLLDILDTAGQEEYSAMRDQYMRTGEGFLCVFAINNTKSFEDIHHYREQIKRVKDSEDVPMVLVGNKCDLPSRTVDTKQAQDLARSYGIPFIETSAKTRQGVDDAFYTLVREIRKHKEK
Sequence (P62937 whole entry): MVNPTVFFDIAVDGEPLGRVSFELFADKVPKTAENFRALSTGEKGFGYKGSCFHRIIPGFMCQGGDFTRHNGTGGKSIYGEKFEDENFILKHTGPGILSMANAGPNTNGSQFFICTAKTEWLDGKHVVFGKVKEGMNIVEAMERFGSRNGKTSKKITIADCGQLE
ASSAY SUMMARY: Ras-Raf disruption/FRET/MOA assay, KRAS G13C
Assay type: biochemical
MEASUREMENT CONTEXT: disruption of BRAF RBD binding, with Cyclophilin A; read-out: KRAS G13C FRET IC50
pIC50: −log10 of the molar value.
RECORDED ENDPOINT: pIC50

pIC50 reading for CCn1c(-c2cccnc2[C@H](C)OC)c2c3cc(ccc31)-c1cc(O)cc(c1)C[C@H](NC(=O)[C@H](C1CCCC1)N(C)C(=O)[C@H]1CCN(C(=O)[C@H]3CN3)C1)C(=O)N1CCC[C@H](N1)C(=O)OCC(C)(C)C2 : 7.00 to 8.00

pIC50 reading for CCn1c(-c2cccnc2[C@H](C)OC)c2c3cc(ccc31)-c1csc(n1)C[C@H](NC(=O)[C@H](C1CCCC1)N1CC[C@]3(CCN(C(=O)[C@@H]4N[C@@H]4C4CC4)C3)C1=O)C(=O)N1CCC[C@H](N1)C(=O)OCC(C)(C)C2 : 5.00 to 6.00

pIC50 reading for CCn1c(-c2cccnc2[C@H](C)OC)c2c3cc(ccc31)-c1cc(O)cc(c1)C[C@H](NC(=O)[C@H](C(C)C)N(C)C(=O)N1CCN(C(=O)[C@@H]3CN3)CC1)C(=O)N1CCC[C@H](N1)C(=O)OCC(C)(C)C2 (atropisomer, axis not shown) : 7.00 to 8.00

pIC50 reading for CCn1c(-c2cnccc2COC)c2c3cc(ccc31)-c1cc(O)cc(c1)C[C@H](NC(=O)[C@H](C(C)C)N(C)C(=O)CN(C)C(=O)C1CN1S(C)(=O)=O)C(=O)N1CCC[C@H](N1)C(=O)OCC(C)(C)C2 (stereo partly shown) : 7.00 to 8.00
